These entries and their values trace back to paper PMC8809517.

tested on: TRX-AviTag-9S-S2 (synthetic construct); assay: HRP pulldown; conditions: HRP: 50 mM Tris pH 8, 150 mM NaCl, 1 mM bME, 50 ug/ml BSA, 3 ug/ml yeast RNA, 0.5% heparin, 2 nM RNA; ITC (25 C) and FP: Tris pH 8, 200 mM KCl, 5% glycerol …
pKd: −log10 of the molar value.
MEASUREMENT_KIND: pKd

{"columns": ["MONOMER_SEQUENCE", "VALUE_MEASURED"],
 "data": [
  ["AUUACACGUGA [Cy5-rpoA]", 8.28]
]}
